Each entry below carries its reported pIC50.
target: IMP-1 (Serratia marcescens); test: biochemical; format: biochemical; conditions: CCF2-FA substrate, 2 hours at 25° C; read-out: IMP-1 IC50
Sequence (P52699 whole entry, looked up, species assumed): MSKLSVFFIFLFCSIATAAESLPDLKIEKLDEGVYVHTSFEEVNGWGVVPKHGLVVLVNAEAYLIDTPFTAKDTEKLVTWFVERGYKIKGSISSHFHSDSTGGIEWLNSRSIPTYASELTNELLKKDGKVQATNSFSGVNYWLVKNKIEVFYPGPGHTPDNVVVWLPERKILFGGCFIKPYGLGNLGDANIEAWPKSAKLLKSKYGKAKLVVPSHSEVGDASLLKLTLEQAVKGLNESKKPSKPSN
A value of pIC50 is the negative decimal logarithm of a concentration given in moles per litre.

Nc1ccc2ncc(-c3ccc(S(=O)(=O)C4CNC4)c(S(N)(=O)=O)c3-c3nn[nH]n3)n2n1	9.02

Form field - read-out: pIC50; system: IMP-1 (Serratia marcescens); submitted item: "NCCS(=O)(=O)c1ccc(-c2cccc3nc(N)[nH]c23)c(-c2nn[nH]n2)c1S(N)(=O)=O" 9.10

Form field - read-out: pIC50; system: IMP-1 (Serratia marcescens); submitted item: "NCCS(=O)(=O)c1ccc(-c2cccc3[nH]c(C(F)(F)F)nc23)c(-c2nn[nH]n2)c1S(N)(=O)=O" 9.25

Data origin, for the record: patent US10227331B2
